System: SW-620 colon
Assay: NCI tumour cell line growth inhibition, 48 h
Where a SMILES comes first, the peptide text is derived from it. [ ]: non-standard residue; d: D form. ΔPro = O=C(O)[CH]1C=CCN1
Kindly supply the reported TGI values for the records listed here.

Consider the worked cases shown below.
MOLECULE	TEST RESULT
NS(=O)(=O)c1ccc(N=Nc2ccc[nH]c2=O)cc1	> 100 µM
O=C(O)C1C=CCN1C(=O)C1C=CCN1C(=O)C1C=CCN1 (stereo not drawn) (H-[ΔPro]-[ΔPro]-[ΔPro]-OH; configuration not given here)	> 100 µM
CCc1n[nH]c(=O)n1CC	> 100 µM
C=C1c2nc3ccccc3n2C=C(c2ccccc2)N1c1ccc(Cl)cc1	> 100 µM
C/C=C/C(=O)Oc1cccc2cccnc12	38.5 µM

The following molecules each have a reported value; give each one's TGI.
1. CC1=CC(=O)N(c2cccc3c(N4C(=O)C=C(C)C4=O)cccc23)C1=O
2. C#C[C@@]1(O)[C@@H](CO)O[C@@H](n2cc(Br)c3c(Cl)ccnc32)[C@@H]1O
3. COc1ccc(N2C(=O)C(Cl)C2c2cc3cc(Br)ccc3nc2Cl)cc1 (stereo not drawn)
4. O=Cc1ccc2ccocc1-2
5. O=S1SC(=S)C2C=CC=NC21 (stereo not drawn)
6. CC(Br)CN1CCOCC1 (stereo not drawn)
7. NS(=O)(=O)c1nnc(NS(=O)(=O)c2ccccc2[N+](=O)[O-])s1
8. Cc1ccccc1NC(=O)/C(=N\NC(N)=S)C(C#N)c1ccccc1 (stereo not drawn)

1: 2.93 µM; 2: > 100 µM; 3: 16.2 µM; 4: > 100 µM; 5: > 100 µM; 6: > 100 µM; 7: > 100 µM; 8: > 100 µM
